# credit: paper PMC12304826

tested-target: human cathepsin L (Homo sapiens)
Construct: purchased Enzo Life Sciences, Lörrach, Germany
Sequence (P07711 114-333): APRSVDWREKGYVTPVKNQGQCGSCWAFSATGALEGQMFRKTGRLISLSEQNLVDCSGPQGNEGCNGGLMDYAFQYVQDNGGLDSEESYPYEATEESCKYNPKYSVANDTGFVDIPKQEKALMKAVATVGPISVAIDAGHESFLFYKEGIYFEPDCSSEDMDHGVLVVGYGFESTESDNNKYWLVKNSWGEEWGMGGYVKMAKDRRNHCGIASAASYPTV
assay-summary: Cathepsin L inhibition assay (Cbz-Phe-Arg-pNA)
Format: biochemical
experimental-setup: 20 µM inhibitor, 60 min; read-out: Residual activity @ 20 µM (%) Cat L
remaining activity at 20 µM strictly under 90% means met; at 90% or over means not met.

Qu. Problem: For the compound CC(C)CC(NC(=O)Oc1ccccc1)C(=O)NC(Cc1ccccc1)C(=O)O (stereo not shown) , is remaining activity at 20 µM under 90%?
Ans. not met

Qu. hey, is remaining activity at 20 µM for CC(C)CC(NC(=O)Oc1ccc(NC(=O)c2ccc(-c3ccccc3)cc2)c(Cl)c1)C(=O)N1CCCC1C(=O)O (stereo not shown) lower than 90% or not?
Ans. not met

Qu. Determine if CC(C)C[C@@H](C(=O)N1CCC[C@H]1C(=O)O)N(C)C(=O)Oc1ccc(Cl)cc1 shows remaining activity at 20 µM strictly lower than 90%.
Ans. not met

Qu. Please let me know if O=C(NC(CC1CCCCC1)C(=O)NC(Cc1ccccc1)C(=O)O)Oc1ccc(Cl)cc1 (stereo not shown) shows remaining activity at 20 µM below 90%.
Ans. met

Qu. # check: remaining activity at 20 µM < 90% for CC(C)C[C@H](NC(=O)Nc1ccc(Cl)cc1)C(=O)N[C@@H](Cc1ccccc1)C(=O)O
Ans. not met

Qu. # check: remaining activity at 20 µM < 90% for CC(C)C[C@H](NC(=O)Oc1ccc(Cl)cc1)C(=O)N[C@@H](Cc1ccccc1)C(=O)OC(C)(C)C
Ans. not met

---

tested-target: human cathepsin B (Homo sapiens, UniProt P07858)
Construct: purchased Calbiochem, Darmstadt, Germany
assay-summary: Cathepsin B inhibition assay (chromogenic substrate Cbz-Arg-Arg-pNA)
Format: biochemical
experimental-setup: 20 µM inhibitor, duplicate measurements, product formation after 60 min; read-out: r.a. (%), residual enzymatic activity of cathepsin B
Consider the following molecules; for each one, report its remaining activity at 20 µM.

So, O=C(NC(CC1CCCCC1)C(=O)NC(Cc1ccccc1)C(=O)O)Oc1ccc(NC(=O)C(c2ccccc2)c2ccccc2)c(Cl)c1 (stereo not shown) ? Its remaining activity at 20 µM was ≤ 2%

GET /value?item= CC(C)C[C@H](NC(=O)Oc1ccc(Cl)cc1)C(=O)N1CCCC[C@H]1C(=O)O &field=remaining activity at 20 µM returns 5%

# remaining activity at 20 µM of CC(C)C[C@H](NC(=O)Oc1ccc(-c2ccccc2)c(NC(=O)Cc2ccccc2)c1)C(=O)N1CCC[C@H]1C(=O)O = ≤ 2%

Consider CC(C)CC(OC(=O)Nc1ccc(Cl)cc1)C(=O)N1CCC[C@H]1C(=O)O (stereo partly shown) . Its measured remaining activity at 20 µM is 68%

---

tested-target: human cathepsin B (Homo sapiens, UniProt P07858)
Construct: purchased Calbiochem, Darmstadt, Germany
assay-summary: Cathepsin B inhibition assay (chromogenic substrate Cbz-Arg-Arg-pNA)
Assay type: biochemical
experimental-setup: 1 h, pH 6, five inhibitor concentrations, duplicates, 60 min progress curves, 500 µM Cbz-Arg-Arg-pNA, pH 6.0, 37 °C; read-out: k inac/K i ± SE, second-order rate constant of enzyme inactivation, cathepsin B
metric-name: kinact/KI (M⁻¹ s⁻¹)
Give the number; M⁻¹ s⁻¹ is assumed, so skip it.

According to the records, this compound CC(C)CC(NC(=O)Oc1ccc(NC(=O)C(c2ccccc2)c2ccccc2)c(Cl)c1)C(=O)N1CCCC1C(=O)O (stereo not shown) [Compound 28] displays kinact/KI of 8180

The compound listed as CC(C)CC(NC(=O)Oc1ccccc1)C(=O)NC(Cc1ccccc1)C(=O)O (stereo not shown) [Compound 1] shows kinact/KI equal to 157

Record CC(C)CC(CNC(=O)Oc1ccc(Cl)cc1)C(=O)N[C@H](Cc1ccccc1)C(=O)O (stereo partly shown) [Compound 5] . Reported kinact/KI: 108

Note to self: kinact/KI recorded for CC(C)C[C@H](NC(=O)Oc1ccc(NC(=O)Cc2ccccc2)c(Cl)c1)C(=O)N1CCC[C@H]1C(=O)O [Compound 24] was 6530

The value of kinact/KI measured for the compound CC(C)C[C@H](NC(=O)Oc1cccc(Cl)c1)C(=O)N1CCC[C@H]1C(=O)O [Compound 23] turned out to be 2760

Measured kinact/KI, CC(C)C[C@H](NC(=O)Oc1ccc(Cl)cc1)C(=O)N1CCCC[C@H]1C(=O)O [Compound 10] : 933

Form: compound = CC(C)C[C@H](NC(=O)Oc1ccc(-c2ccccc2)c(NC(=O)Cc2ccccc2)c1)C(=O)N1CCC[C@H]1C(=O)O [Compound 21] ; kinact/KI = 1340
